Assay: ABTS radical scavenging activity assay
Conditions: concentration 200 μM; "-" not active
metric: ABTS Inhibitory Rate (%)
I only need the number, in %, no unit after it.

The following molecules have reported results that may help.
{"columns": ["molecule", "readoutUnits", "ABTS Inhibitory Rate (%)"],
 "data": [
  ["COc1cc(O)ccc1O[C@@H]1O[C@H](CO)[C@@H](O)[C@H](O)[C@H]1O [Compound 20]", "%", 92.80],
  ["O=C1C[C@@H](c2ccccc2)Oc2cc(O)cc(O)c21 [Compound 14, pinocembrin]", "%", 78.11],
  ["COc1cc(CC/C=C/C(=O)CCc2ccc(O)c(OC)c2)ccc1O [Compound 8, gingerenone A]", "%", 90.81],
  ["COc1ccc([C@H]2OC[C@H]3[C@@H]2CO[C@@H]3c2ccc(OC)c(O[C@@H]3O[C@H](CO)[C@@H](O)[C@H](O)[C@H]3O)c2)cc1O [Compound 22]", "%", 91.51],
  ["COc1ccc(-c2oc3cc(OC)cc(O)c3c(=O)c2O)cc1 [Compound 12, 3,5-dihydroxy-4′,7-dimethoxyflavone]", "%", 75.07],
  ["COc1cc(CCC(=O)CC(O)CCc2ccc(O)c(OC)c2)ccc1O (stereo not shown) [Compound 7, hexahydrocurcumin]", "%", 91.09]
]}

*Q* Given O=c1ccc2c3c(c(O)cc2o1)C[C@@H](O)[C@@H](c1ccc(O)c(O)c1)O3 [Compound 16, epiphyllocoumarin] , state its recorded ABTS Inhibitory Rate (%).
*A* 92.51
